System: HCT-15 colon
Assay notes: NCI-60 one-dose screen, 48 h
Condition: 10 µM unless noted
This is part of a sample that, as a whole, favours compounds with a hit. Of some 83,000 tested, about 20% had one in any assay. Calls of active or inactive are those of the source. The calls were made as follows: active = growth percent below 10; inactive = the rest.
# output must be one of 1.0 for active, 0.0 for inactive

The examples below pair each entry with its known result.
Query: Test call, this compound: CC(=O)Nc1ccc(C=Nc2ccc3ccccc3c2)cc1
Reply: 0.0

Query: // return assay outcome for O=C(N/N=C1\c2ccccc2-c2cccc(C(=O)O)c21)c1ccc(O)cc1
Reply: 0.0

Query: Check the results log: what was the call for Cc1cnc(N)nc1OCC(C)(C)CNC(=O)c1cccc(-c2ccc(S(=O)(=O)Nc3ccc4c(c3)N(C(=O)C3CC3)CCC4)cc2)c1 ?
Reply: 0.0

Query: Entry Cc1ccc(N)c(O)c1 : call = ?
Reply: 0.0

Others:
Query: Given CC(C)(C)c1cc(C(=O)Nc2cc3ccccc3cc2C(=O)NCCN)cc(C(C)(C)C)c1 , state the outcome it received in this test.
Reply: 1.0

Query: Called result for N#C/C(C(=O)c1ccccc1)=C1/C(=O)Nc2ccccc21
Reply: 0.0

Query: Hi, sorry to bother you, what did the test record for CCCCCCCCCCCCCCCCCCNC(=S)N/N=C/c1ccc(OC)c(OC)c1 ?
Reply: 0.0

---

Test system: DU-145 prostate
Assay notes: NCI-60 one-dose screen, 48 h (100 = growth as untreated, 0 = no growth, -100 = all killed)
Condition: 10 µM unless noted
About 83,000 compounds went through this panel and 20% of them were active in at least one assay; those are over-represented in the sample as a whole.
Reported growth values for the following compounds.
Dear colleague, please return just the value in %, with no unit written.

Short answer for CCc1ccc(-c2ccc(COc3ccc(CC4SC(=O)NC4=O)cc3)cc2)cc1 (stereo not drawn) : growth was 88.8

Sure, the documented growth for CC(C)c1ccc(C(=O)Nc2nc3ccc(O)cc3s2)cc1 is 42.1

***
growth reported for this compound Clc1ccc(N2CCN(CCCN3CCN(c4cccc(Cl)c4)CC3)CC2)cc1 : 79.7

---

System: K-562 leukemia
Assay notes: NCI-60 one-dose screen, 48 h
Condition: 10 µM unless noted
About 83,000 compounds went through this panel and 20% of them were active in at least one assay; those are over-represented in the sample as a whole. Activity calls are given as the source filed them. Rule for the calls: active = growth percent below 10; inactive = the rest.
# valid calls are 1 = active, -1 = inactive; nothing else

Query: So what was the verdict on CSc1nc(N)c(N=Nc2ccc(S(=O)(=O)Nc3nnc(C)s3)cc2)c(=O)[nH]1 in this test?
Reply: -1

Continuing:
Query: Tell me the assay call for CC(C)CCSc1nc(N)nc2nc[nH]c12 please.
Reply: -1

---

Test system: CCRF-CEM leukemia
Assay notes: NCI-60 one-dose screen, 48 h
Condition: 10 µM unless noted
Compounds without any hit were thinned out: in the full panel of roughly 83,000, 20% have a hit. Calls of active or inactive are those of the source. The calls were made as follows: active = growth percent below 10; inactive = the rest.
API: response.call in class 1 (active), class 0 (inactive)

Query: Would you mind telling me which call this test gave O=C(OCc1ccc2c(Cl)cc(Cl)c(O)c2n1)N1CCN(C(=O)c2cc3cc(F)ccc3[nH]2)CC1 ?
Reply: class 0

Query: Identify the outcome logged in this assay for the molecule shown: COC(=O)[C@@H](NC(=O)NC(=O)NC(=O)CI)C(C)C
Reply: class 1

Query: Can you look up the reported call for Cn1cc(-c2nnc(-c3cn(C)c4ncc(Br)cc34)s2)c2cc(Br)ccc21 for me?
Reply: class 1

Query: Hey, what did the test say about CC1=CCc2ccccc21 ?
Reply: class 0

Query: Write down the call the test reported for this molecule. Item: Nc1nc(SCc2cccc([N+](=O)[O-])c2)c2[nH]cnc2n1
Reply: class 0

Query: Hi, do you know how CCOc1cccc2c(NC(C)CCCN(CC)CC)c(C)cnc12 (stereo not given) came out in this test?
Reply: class 0

---
Query: Field: outcome | Entry: CCc1cccc(Cl)c1
Reply: class 0

Query: Per the records of this test, what outcome belongs to Cn1cc(-c2nnc(-c3ccccc3)s2)c2cc(Br)cnc21 ?
Reply: class 1

Query: Which result was noted for this molecule in the test: O=C1CC(c2ccccc2)Cc2nc3ccc(Cl)cc3cc21 (stereo not given)
Reply: class 0

Query: For this molecule, state the assay outcome: COC(=O)C(=Cc1ccccc1[N+](=O)[O-])C(=O)OC
Reply: class 1

This collection of values is drawn from PubChem BioAssay (NCI).
